System: human PKK mRNA
Test Method Notes: Antisense inhibition of human PKK mRNA in HepaRG cells, 1,000 nM, MOE/deoxy/cEt oligonucleotides (Example 3)
Type: cell-based
Conditions: Table 19; HepaRG cells, electroporation with 1,000 nM antisense oligonucleotide, approximately 24 hours; PKK mRNA by RT-PCR (RTS3454), relative to untreated control cells
Strand notation (5' to 3'): a small letter for the sugar, then the base; units joined by * are phosphorothioate-linked, units joined directly phosphodiester-linked; [ ] holds rarer units or linkages, { } end groups; capitals alone tell only the bases. e = 2'-O-(2-methoxyethyl) (MOE); k = constrained ethyl (cEt); [5mC] = 5-methylcytosine; d = 2'-deoxy (DNA)
Measured Attribute: % inhibition

| Substance | Measured On | Data Value |
| --- | --- | --- |
| 548134 (e[5mC]*eA*kG*dA*dA*dT*dT*dT*dG*dA*d[5mC]*dT*dT*kG*kA*eA; antisense) [compound 548134] | human PKK mRNA | 17% |
| 548085 (antisense eT*eA*kA*dG*dG*dG*dA*d[5mC]*d[5mC]*dA*d[5mC]*d[5mC]*dT*kG*kA*eA) [compound 548085] | human PKK mRNA | 8% |
| 548133 (eA*eG*kA*dA*dT*dT*dT*dG*dA*d[5mC]*dT*dT*dG*kA*kA*e[5mC]; antisense) [compound 548133] | human PKK mRNA | 23% |
| 548105 (antisense e[5mC]*eA*kT*dG*dT*dA*d[5mC]*dT*d[5mC]*dA*dG*d[5mC]*dG*kA*k[5mC]*eT) [compound 548105] | human PKK mRNA | 49% |
| 548090 (antisense e[5mC]*eA*kA*dA*d[5mC]*dT*dA*dA*dG*dG*dG*dA*d[5mC]*k[5mC]*kA*e[5mC]) [compound 548090] | human PKK mRNA | 46% |
| 548080 (e[5mC]*e[5mC]*k[5mC]*dT*dT*d[5mC]*dT*dT*dT*dA*dT*dA*dG*k[5mC]*k[5mC]*eA; antisense) [compound 548080] | human PKK mRNA | 0% |
